target: KRAS G12V (Homo sapiens, UniProt P01116, G12V); construct: SW620-KRAS (G12V)-HiBit-KI cell (Pharmaron); host or cells: SW620-KRAS (G12V)-HiBit-KI cells (HiBiT knock-in at the endogenous KRAS locus); assay: KRAS G12V HiBit assay; assay type: cell-based; settings: SW620-KRAS (G12V)-HiBit-KI cells, compound treatment for 24 hours, class symbols
Sequence (P01116 1-188 isoform P01116-2 G12V): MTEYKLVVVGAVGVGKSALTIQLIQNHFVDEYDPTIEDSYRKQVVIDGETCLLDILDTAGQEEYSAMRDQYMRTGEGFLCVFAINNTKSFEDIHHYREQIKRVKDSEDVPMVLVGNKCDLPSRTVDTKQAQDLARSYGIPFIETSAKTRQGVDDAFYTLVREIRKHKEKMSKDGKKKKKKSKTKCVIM
# DC50 values compiled below

[
  {
    "MOLECULE": "CCc1c(F)ccc2cc(O)cc(-c3ncc4c(N5CCC[C@@](C)(O)C5)nc(OC[C@]56CCCN5[C@@H](COC(=O)N5CCC(CN7CCC(c8ccc9c(c8)n(C)c(=O)n9C8CCC(=O)NC8=O)CC7)CC5)CC6)nc4c3F)c12 (stereo partly shown)",
    "DC50": "< 10 nM"
  },
  {
    "MOLECULE": "CCc1c(F)ccc2cc(O)cc(-c3ncc4c(N5CCC[C@@](C)(O)C5)nc(OC[C@@]56CCCN5C(CN5CCC(OCCCc7ccc8c(c7)n(C)c(=O)n8C7CCC(=O)NC7=O)CC5)CC6)nc4c3F)c12 (stereo partly shown)",
    "DC50": "10 to 100 nM"
  },
  {
    "MOLECULE": "C#Cc1c(F)ccc2cccc(-c3ncc4c(N5CCC[C@@](C)(O)C5)nc(OC[C@@]56CCCN5[C@H](COC(=O)N5CC(OCC7CCN(c8ccc9c(c8)n(C)c(=O)n9C8CCC(=O)NC8=O)CC7)C5)CC6)nc4c3F)c12 (stereo partly shown)",
    "DC50": "> 100 nM"
  }
]

// returns reported DC50 for input CCc1cccc2cc(O)cc(-c3ncc4c(N5CCC[C@@](C)(O)C5)nc(OC[C@@]56CCCN5[C@H](COC(=O)N5CCC(CN7CCC(c8ccc9c(c8)n(C)c(=O)n9C8CCC(=O)NC8=O)CC7)CC5)CC6)nc4c3F)c12 (stereo partly shown)
< 10 nM

* * *

Target: KRAS (Homo sapiens, UniProt P01116)
Construct: endogenous in cells; host or cells: KE39 (KRAS amplified) cells
Sequence (P01116 1-188 isoform P01116-2): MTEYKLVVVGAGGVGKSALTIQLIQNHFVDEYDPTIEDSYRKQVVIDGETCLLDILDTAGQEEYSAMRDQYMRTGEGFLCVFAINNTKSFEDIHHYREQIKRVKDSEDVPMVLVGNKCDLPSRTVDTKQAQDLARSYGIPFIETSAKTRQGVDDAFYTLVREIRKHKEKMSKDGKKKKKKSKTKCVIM
Test: KRASamp MSD assay
Format: cell-based
Conditions: KE39 (KRAS amplified) cells, treated with test compounds for 24 hr, MSD readout of KRAS degradation
Experimental: KE39 (KRAS amplified) cells were cultured in RPMI 1640 medium (Gibco, 11875093), seeded into 96 well plate and treated with test compounds for 24 hr. […] 2×MSD reading buffer was added into individual wells and the plate was finally read by MSD reader (MSD, SQ 120 MM). The recombinant WT KRAS protein was used for standard curve generation and protein quantification. The degradation activity was calculated using the following formula: […]
READOUT: DC50

[
  {
    "COMPOUND": "C#Cc1c(F)ccc2cc(O)cc(-c3ncc4c(N5CCOCC5)nc(OC[C@@]56CCCN5[C@H](COC(=O)N5CCC(CN7CCC(c8ccc9c(c8)n(C)c(=O)n9C8CCC(=O)NC8=O)CC7)CC5)CC6)nc4c3F)c12 (some centres unmarked)",
    "DC50": "< 1 nM"
  }
]

Okay, now this compound:
Query: DC50; subject: C#Cc1c(F)ccc2cc(O)cc(-c3ncc4c(N5CCC[C@@](C)(O)C5)nc(OC[C@@]56CCCN5[C@H](COC(=O)N5CC7(CCC(N8CCC(c9ccc%10c(c9)n(C)c(=O)n%10C9CCC(=O)NC9=O)CC8)CC7)C5)CC6)nc4c3F)c12 (some centres unmarked)
1 to 10 nM

* * *

In this section we review reported DC50 values for a set of compounds.
target: KRAS (Homo sapiens); construct: endogenous in cells; host or cells: KE39 (KRAS amplified) cells; assay: KRASamp MSD assay; assay type: cell-based; settings: KE39 (KRAS amplified) cells, treated with test compounds for 24 hr, MSD readout of KRAS degradation

For orientation, consider the following solved cases.
[
  {
    "COMPOUND": "CCc1c(F)ccc2cc(O)cc(-c3ncc4c(N5CCC[C@H](N)C5)nc(OC[C@@]56CCCN5[C@H](COC(=O)N5CCC7(CC5)CC(N5CCC(c8ccc9c(c8)n(C)c(=O)n9C8CCC(=O)NC8=O)CC5)C7)CC6)nc4c3F)c12 (stereo partly shown)",
    "READOUT": "DC50",
    "VALUE": "≥ 10 nM"
  },
  {
    "COMPOUND": "CCc1c(F)ccc2cc(O)cc(-c3ncc4c(N5CCC[C@@](C)(O)C5)nc(OC[C@@]56CCCN5[C@H](COC(=O)c5ccc(CN7CCC(c8ccc9c(c8)n(C)c(=O)n9C8CCC(=O)NC8=O)CC7)cc5)CC6)nc4c3F)c12 (stereo partly shown)",
    "READOUT": "DC50",
    "VALUE": "< 1 nM"
  },
  {
    "COMPOUND": "C#Cc1c(F)ccc2cc(O)cc(-c3ncc4c(N5CCC[C@@](C)(O)C5)nc(OCC5(CN6CCC7(CC6)CCN(c6ccc8c(c6)n(C)c(=O)n8C6CCC(=O)NC6=O)CC7)CC5)nc4c3F)c12 (stereo partly shown)",
    "READOUT": "DC50",
    "VALUE": "≥ 10 nM"
  }
]

We now examine a further compound.
What DC50 value was documented for this compound, CCc1c(F)ccc2cc(O)cc(-c3ncc4c(N5CCCOCC5)nc(OC[C@@]56CCCN5[C@H](COC(=O)N5CCC(CN7CCC(c8ccc9c(c8)n(C)c(=O)n9C8CCC(=O)NC8=O)CC7)CC5)CC6)nc4c3F)c12 (stereo partly shown) ?
< 1 nM

* * *

target: KRAS G12V (Homo sapiens, UniProt P01116, G12V); construct: SW620-KRAS (G12V)-HiBit-KI cell (Pharmaron); host or cells: SW620-KRAS (G12V)-HiBit-KI cells (HiBiT knock-in at the endogenous KRAS locus); assay: KRAS G12V HiBit assay; type: cell-based; details: SW620-KRAS (G12V)-HiBit-KI cells, compound treatment for 24 hours, class symbols
READOUT: DC50

[
  {
    "MOLECULE": "C#Cc1c(F)ccc2cc(O)cc(-c3ncc4c(N5CCC[C@@](C)(O)C5)nc(OC[C@@]56CCCN5[C@H](COC(=O)N5CCC7(CC5)CC(CN5CCC(c8ccc9c(c8)n(C)c(=O)n9C8CCC(=O)NC8=O)CC5)C7)CC6)nc4c3F)c12 (some centres unmarked) [Compound 323]",
    "TGT": "KRAS G12V (Homo sapiens, UniProt P01116, G12V)",
    "DC50": "< 10 nM"
  }
]

Please turn your attention to the following entry.
Query DC50 on KRAS G12V (Homo sapiens, UniProt P01116, G12V) for CCc1c(F)ccc2cc(O)cc(-c3ncc4c(N5CCC[C@@](C)(O)C5)nc(OC[C@@]56CCCN5[C@H](COC(=O)N5CC7(CCC(N8CCC(c9ccc%10c(c9)n(C)c(=O)n%10C9CCC(=O)NC9=O)CC8)CC7)C5)CC6)nc4c3F)c12 (some centres unmarked) [Compound 467]
< 10 nM

* * *

Target: KRAS G12D (Homo sapiens, UniProt P01116, G12D)
Construct: AsPc-1-KRAS (G12D)-HiBit-KI cell (Pharmaron); host or cells: AsPc-1-KRAS (G12D)-HiBit-KI cells (HiBiT knock-in at the endogenous KRAS locus)
Sequence (P01116 1-188 isoform P01116-2 G12D): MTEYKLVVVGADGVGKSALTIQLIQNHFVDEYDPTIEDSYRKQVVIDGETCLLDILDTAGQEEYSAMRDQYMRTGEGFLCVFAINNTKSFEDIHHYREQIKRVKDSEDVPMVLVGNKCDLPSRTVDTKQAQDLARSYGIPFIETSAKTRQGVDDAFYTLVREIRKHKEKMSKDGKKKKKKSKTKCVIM
Assay: KRAS G12D HiBit assay
Format: cell-based
Details: AsPc-1-KRAS (G12D)-HiBit-KI cell, compound treatment for 24 hours, absolute DC50; class symbols
Description: Day 1. […] Allowed cells to reach approximately 80% confluence before splitting. Rinsed cultivated cells in T-75 flasks with 5 mL PBS (Solarbio, P1020-500). […] Inactivated trypsin by adding excessive serum containing medium. Harvested the cells from flask into cell culture medium and counted the cell number. Day 2. Test compounds were dissolved at 0.3 mM in DMSO (Solarbio, D8371) as stock solution. […] The inhibition activity was calculated using the following formula: […]
READOUT: DC50

[
  {
    "COMPOUND": "CCc1c(F)ccc2cc(O)cc(-c3ncc4c(N5CCCC(F)(F)C5)nc(OC[C@@]56CCCN5[C@H](COC(=O)N5CCC(CN7CCC(c8ccc9c(c8)n(C)c(=O)n9C8CCC(=O)NC8=O)CC7)CC5)CC6)nc4c3F)c12 (stereo partly drawn) [Compound 437]",
    "DC50": "< 100 nM"
  },
  {
    "COMPOUND": "CCc1c(F)ccc2cccc(-c3ncc4c(N5CCC[C@@](C)(O)C5)nc(OC[C@@]56CCCN5[C@H](COC(=O)NCCOc5ccc7c(c5)n(C)c(=O)n7C5CCC(=O)NC5=O)CC6)nc4c3F)c12 (stereo partly drawn) [Compound 111]",
    "DC50": "> 300 nM"
  },
  {
    "COMPOUND": "C#Cc1c(F)ccc2cccc(-c3ncc4c(N5CCC[C@@](C)(O)C5)nc(OCC5(CN6CCC(N7CCC(c8ccc9c(C%10CCC(=O)NC%10=O)nn(C)c9c8)CC7)CC6)CC5)nc4c3F)c12 (stereo partly drawn) [Compound 57]",
    "DC50": "< 100 nM"
  }
]

For C#Cc1c(F)ccc2cc(O)cc(-c3ncc4c(N5CCC[C@@](C)(O)C5)nc(OC[C@@]56CCCN5[C@H](COC(=O)N5CCC(OC7CCN(c8ccc9c(c8)n(C)c(=O)n9C8CCC(=O)NC8=O)CC7)CC5)CC6)nc4c3F)c12 (stereo partly drawn) [Compound 155] , what is its reported DC50?
< 100 nM

Consider the compound shown here: CCc1c(F)ccc2cc(O)cc(-c3ncc4c(N5CCC[C@@](C)(O)C5)nc(OC[C@@]56CCCN5[C@H](COc5ccc(CCN7CCC(c8ccc9c(c8)n(C)c(=O)n9C8CCC(=O)NC8=O)CC7)cc5)CC6)nc4c3F)c12 (stereo partly drawn) [Compound 499] What is its recorded DC50?
< 100 nM

Endpoint output: DC50 of CCc1c(F)ccc2cc(O)cc(-c3ncc4c(N5CCC[C@@](C)(O)C5)nc(OC[C@@]56CCCN5[C@H](COC(=O)NCCOCCOc5ccc7c(c5)n(C)c(=O)n7C5CCC(=O)NC5=O)CC6)nc4c3F)c12 (stereo partly drawn) [Compound 112] . Value?
> 300 nM

Consider the compound shown here: CCc1c(F)ccc2cc(O)cc(-c3ncc4c(N5CCC[C@@](C)(O)C5)cc(OC[C@@]56CCCN5[C@H](COC(=O)N5CCC(CN7CCC(c8ccc9c(c8)n(C)c(=O)n9C8CCC(=O)NC8=O)CC7)CC5)CC6)nc4c3F)c12 (stereo partly drawn) [Compound 492] What is its recorded DC50?
< 100 nM

# query: DC50 of entry C#Cc1c(F)ccc2cccc(-c3ncc4c(N5CCC[C@@](C)(O)C5)nc(OCC5(CN6CCN(C7CCN(c8ccc9c(c8)n(C)c(=O)n9C8CCC(=O)NC8=O)CC7)CC6)CC5)nc4c3F)c12 (stereo partly drawn) [Compound 53]
> 300 nM

Please give the measured DC50 for this compound: C#Cc1c(F)ccc2cc(O)cc(-c3ncc4c(N5CCC[C@@](C)(O)C5)nc(OCC5(CN6CCC(N7CCN(c8ccc9c(c8)n(C)c(=O)n9C8CCC(=O)NC8=O)CC7)CC6)CC5)nc4c3F)c12 (stereo partly drawn) [Compound 30]
< 100 nM
